# maps each entry to its RGS8 Hill Slope
molecular target: RGS8 (Homo sapiens (Human), UniProt P57771); assay: FCPIA: Gαo binding to RGS8; conditions: Table 3
Sequence (P57771 other isoform, or with tags, fused parts or gaps): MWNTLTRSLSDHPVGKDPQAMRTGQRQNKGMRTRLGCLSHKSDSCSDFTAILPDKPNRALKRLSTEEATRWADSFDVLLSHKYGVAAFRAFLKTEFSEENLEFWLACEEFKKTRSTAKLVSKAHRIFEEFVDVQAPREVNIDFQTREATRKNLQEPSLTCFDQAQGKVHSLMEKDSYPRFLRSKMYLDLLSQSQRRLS
# print the numeric value only

Example results:
>>> result_number("CC(C)(C)c1ccc(-n2sc(=O)n(Cc3ccccc3)c2=O)cc1 [S3]")
"−0.78"
>>> result_number("CCCCn1sc(=O)n(CC(C)C)c1=O [CCG-203764]")
"−0.44"
>>> result_number("CCn1sc(=O)n(CC(C)C)c1=O [CCG-203762]")
"−0.78"
>>> result_number("Cc1ccc(-n2sc(=O)n(C)c2=O)cc1 [CCG-203759]")
"−1.06"

# input Any idea what its RGS8 Hill Slope is? The compound is Cc1ccc(-n2sc(=O)n(Cc3cccc(Cl)c3)c2=O)cc1 [CCG-203777]
# output −1.00

# input Would you mind telling me what RGS8 Hill Slope value was observed for Cc1cccc(-n2sc(=O)n(Cc3ccc(F)cc3)c2=O)c1 [CCG-203788] ?
# output −1.09

# input Item Cn1c(=O)sn(C(C)(C)C)c1=O [CCG-203760] has what recorded RGS8 Hill Slope?
# output −0.89

# input Report RGS8 Hill Slope for Cc1ccc(Cn2sc(=O)n(Cc3ccccc3)c2=O)cc1 [CCG-203734] please.
# output −0.66

# input What does the record list as RGS8 Hill Slope for Cc1ccc(Cn2c(=O)sn(-c3ccc(C)cc3)c2=O)cc1 [CCG-203736] ?
# output −1.45

# input Entry O=c1sn(-c2ccccc2)c(=O)n1Cc1cccc(Cl)c1 [S14] : reported RGS8 Hill Slope = ?
# output −1.47

# input GET /values?readout=RGS8 Hill Slope&item= O=c1sn(-c2ccc(Cl)cc2)c(=O)n1Cc1ccccc1 [CCG-203723]
# output −0.80

* * *

Tested on: RGS4
Test: FCPIA: Gαo binding to RGS4
Conditions: Table 3
Excerpt: FCPIA Dose Response and Reversibility Experiments:
Rule: RGS4 Hill Slope of -1 or more gives yes; anything lower gives no.

Solved entries:
>>> label("O=c1sn(-c2ccc(Cl)c(Cl)c2)c(=O)n1Cc1ccc(F)cc1 [CCG-203728]")
"no"
>>> label("CCCCn1c(=O)sn(-c2ccc(C)cc2)c1=O [CCG-203767]")
"no"

# input Has Cc1ccc(-n2sc(=O)n(Cc3ccc(Cl)cc3)c2=O)cc1 [CCG-203731] a recorded RGS4 Hill Slope greater than or equal to -1?
# output yes

# input Given the entry O=c1sn(-c2ccccc2)c(=O)n1Cc1ccc(F)cc1 [CCG-203726] , answer whether its RGS4 Hill Slope meets or surpasses -1.
# output no

# input For this compound, is measured RGS4 Hill Slope -1 or higher? CCn1sc(=O)n(CC(C)C)c1=O [CCG-203762]
# output yes

* * *

molecular target: RGS4; assay: FCPIA: Gαo binding to RGS4; settings: Table 3, duplex FCPIA, average of two experiments; read-out: RGS4 IC50
Items are presented alongside their recorded pIC50.
# pIC50 is unitless: minus log10 of the molar concentration; print number only

Some solved cases for reference:
>>> result_number("Cc1ccc(Cn2sc(=O)n(Cc3ccc(F)cc3)c2=O)cc1")
7.89
>>> result_number("CCCCn1sc(=O)n(Cc2ccc(F)cc2)c1=O")
7.80
>>> result_number("COc1ccc(-n2sc(=O)n(Cc3ccccc3)c2=O)cc1")
7.62
>>> result_number("Cn1c(=O)sn(C(C)(C)C)c1=O")
7.55
>>> result_number("O=c1sn(-c2cccc(Cl)c2)c(=O)n1Cc1ccc(F)cc1")
7.28
>>> result_number("CCCCn1c(=O)sn(-c2ccc(C)cc2)c1=O")
7.70
>>> result_number("O=c1sn(-c2cccc(Cl)c2)c(=O)n1Cc1ccccc1")
7.48
>>> result_number("Cc1cccc(-n2sc(=O)n(Cc3ccc(F)cc3)c2=O)c1")
6.92

Consider now this further compound.
# input Query for RGS4: what pIC50 does the record show for O=c1sn(-c2ccccc2)c(=O)n1Cc1ccccc1 ?
# output 7.62

* * *

biological target: UniProt P57771; assay: FCPIA: Gαo binding to RGS8; settings: Table 3
Could you mark each record true if its RGS8 Hill Slope falls strictly under -0.8, and false if it equals or exceeds it?

>>> label("Cc1ccc(-n2sc(=O)n(Cc3ccc(Cl)c(Cl)c3)c2=O)cc1 [CCG-203743]")
"false"
>>> label("Cc1cccc(-n2sc(=O)n(Cc3cccc(Cl)c3)c2=O)c1 [S16]")
"true"

Let us examine a further case.
# input Hello, is RGS8 Hill Slope of the following compound strictly smaller than -0.8? Cc1ccc(-n2sc(=O)n(Cc3ccccc3)c2=O)cc1 [CCG-203724]
# output true
